Test system: LNCaP
experimental-setup: read-out: IC50 ±SEM (nM), LNCaP; Table 6
reported-property: IC50

# mol, IC50
data = [
    ("COc1cc(C(=O)c2csc(-c3cc(F)c(F)c(F)c3)n2)cc(OC)c1OC", "> 10000 nM"),
    ("COc1cc(C(=O)c2csc(-c3ccccc3)n2)cc(OC)c1OCCN1C(=O)c2ccccc2C1=O", "65 nM"),
]

Query compound follows.
Fill in reported IC50 for this entry: COc1cc(C(=O)c2csc(-c3ccc(CC(N)=O)cc3)n2)cc(OC)c1OC
> 10000 nM

====

Tested on: cancer and MDR cell lines with different resistance mechanisms
test-protocol: Growth inhibition in other cancer and MDR cell lines of Table 14B
Assay type: cell-based
experimental-setup: A375MA2 cells, n=3; read-out: IC50 ± SEM (nmol/L) A375MA2
reported-property: pIC50
One number for each entry, as −log10 of the molar value.

Name the recorded pIC50 of the molecule listed here: COc1ccc(S(=O)(=O)Nc2cccnc2Nc2ccc(O)cc2)cc1
6.58

====

System: PPC-1
test-protocol: cells
experimental-setup: Homo sapiens, PPC-1, 96 h, read-out: IC50 ± SEM (nM), PPC-1
Please provide measured IC50 for the entries that follow.

Answered cases to consult:
# compound, IC50
data = [
    ("O=C(c1cc(O)c(O)c(O)c1)c1c[nH]c(-c2cc(O)c(O)c(O)c2)n1 [13ea]", "> 10000 nM"),
    ("COc1cc(C(=O)c2c[nH]c(-c3ccc(C)cc3)n2)cc(OC)c1O [12dc]", "110 nM"),
]

// below: IC50 requested for another compound
With PPC-1 as the test system, provide measured IC50 for this compound: COc1ccc(-c2nc(C(=O)c3ccc(F)cc3)cn2C)cc1 [12cba]
> 10000 nM

====

System: MRP
test-protocol: Growth inhibition in MRP-mediated resistant cells (Table 14B)
Type: cell-based
experimental-setup: MRP2 overexpressed, n=3; read-out: IC50 ± SEM (nmol/L) HEK293-MRP2
reported-property: pIC50
One number for each entry, as −log10 of the molar value.

Query pIC50 for COc1ccc(S(=O)(=O)Nc2cccnc2Nc2ccc(O)cc2)cc1
6.13

====

experimental-setup: rat, IV; […] (1h, 2r), 5 mg/kg (5Ha, 5Hc)
reported-property: CL (mL/min/kg), systemic clearance
One number for each entry, in mL/min/kg.

Solved cases below.
# mol, quantitative-result
rows = [
    ("COc1cc(C(=O)c2csc(Nc3ccc(F)cc3)n2)cc(OC)c1OC.Cl", 13),
    ("COc1cc(C(=O)c2csc(-c3ccc(CN)cc3)n2)cc(OC)c1OC.Cl", 22),
    ("COc1cc(C(=O)c2csc(-c3ccccc3)n2)cc(OC)c1OC", 7.7),
]

Now look at this one.
Let me know recorded CL (mL/min/kg), systemic clearance for COc1cc(C(=O)c2csc(Nc3ccccc3)n2)cc(OC)c1OC.Cl , thanks.
17

====

Test system: PPC-1
test-protocol: cells
experimental-setup: Homo sapiens, PPC-1, 96 h, read-out: IC50 ± SEM (nM), PPC-1
Could you please report measured log10 IC50 for the items listed next?
Values are log10 of IC50 in nM.

Below, 4 compounds whose answers are already recorded.
# compound, reported-property, quantitative-result
rows = [
    ("COc1cc(C(=O)c2c[nH]c(-c3ccc(C(F)(F)F)cc3)n2)cc(OC)c1OC [12pa]", "log10 IC50", 2.04),
    ("COc1cc(/C(=N\\N)c2csc(-c3ccccc3)n2)cc(OC)c1OC [2d-trans]", "log10 IC50", 2.98),
    ("COc1cc(/C(=N/N)c2csc(-c3ccccc3)n2)cc(OC)c1OC [2d-cis]", "log10 IC50", 2.94),
    ("COc1cc(C(=O)c2cn(S(=O)(=O)c3ccccc3)c(-c3ccc(N(C)C)cc3)n2)cc(OC)c1OC [11ga]", "log10 IC50", 1.86),
]

I need log10 IC50 for every entry listed below, if you could help.
1. O=C(c1ccc(F)cc1)c1cn(S(=O)(=O)c2ccccc2)c(-c2ccc(Cl)cc2)n1 [11fb]
2. COc1ccc(-c2nc(C(=O)c3ccc(F)cc3)cn2S(=O)(=O)c2ccccc2)cc1OC [11hb]
3. COc1cc(/C(=N/O)c2csc(-c3ccccc3)n2)cc(OC)c1OC [2e-cis]
4. COc1cc(C(=O)c2csc(-c3ccc4[nH]ccc4c3)n2)cc(OC)c1OC [66a]
5. COc1cc(C(=O)c2cc(-c3ccccc3)ncn2)cc(OC)c1OC
6. COc1ccc(-c2nc(C(=O)c3ccc(F)cc3)c[nH]2)cc1OC [12hb]
7. COc1cc(C(=O)[C@@H]2CSC(c3ccc(O[Si](C)(C)C(C)(C)C)cc3)=N2)cc(OC)c1OC [58a]

[1.73, 3.16, 2.20, 0.90, 3.57, 3.34, 2.39]

====

For each of the compounds below, state its log10(IC50).
Tested on: PC-3
test-protocol: cells
experimental-setup: Homo sapiens, PC-3, 96 h, read-out: IC50 ± SEM (nM), PC-3
In our notation, the value equals log10 of IC50 in nM.

Here's what some known entries look like.
# compound, quantitative-result
records = [
    ("COc1cc(C(=O)c2csc(Nc3ccc(F)cc3)n2)cc(OC)c1OC", 1.63),
    ("COc1ccc(-c2nc(C(=O)c3ccc(F)cc3)cn2S(=O)(=O)c2ccccc2)cc1 [11cb]", 1.52),
    ("COc1cc(C(=O)c2coc(-c3ccccc3)n2)cc(OC)c1OC [36a]", 2.47),
    ("O=C(c1ccc(F)cc1)c1c[nH]c(-c2ccc(OCc3ccccc3)cc2)n1 [12jb]", 1.90),
    ("O=C(c1ccc(F)cc1)c1cn(S(=O)(=O)c2ccccc2)c(-c2ccc(OCc3ccccc3)cc2)n1 [11jb]", 1.88),
]

For each of the compounds below, note its log10(IC50).
1. COc1cc(C(=O)c2csc(-c3cc4ccccc4[nH]3)n2)cc(OC)c1OC [62a]
2. COc1cc(/C(=N\N)c2csc(-c3ccccc3)n2)cc(OC)c1OC [2d-trans]
3. COc1cc(C(=O)c2csc(Nc3ccccc3)n2)cc(OC)c1OC
4. CN(C)c1ccc(-c2nc(C(=O)c3ccc(F)cc3)c[nH]2)cc1 [12gb]
5. COc1ccc(-c2nc(C(=O)c3cc(OC)c(OC)c(OC)c3)c[nH]2)cc1 [12ca]

1. 1.38
2. 3.02
3. 1.76
4. 1.91
5. 1.65

Your task in this section: give log10(IC50) for each listed record.
1. COc1cc(C(=O)c2cn(C)c(-c3ccc(C)cc3)n2)cc(OC)c1OC
2. Cc1ccc(-c2nc(C(=O)c3ccc(F)cc3)c[nH]2)cc1 [12db]
3. COc1cc(C(=O)c2csc(-c3ccc(O)cc3)n2)cc(OC)c1OC

[1.66, 1.75, 1.94]

====

System: B16-F1
test-protocol: SRB cell growth inhibition (cytotoxicity) assay
Format: cell-based, mouse
experimental-setup: Mus musculus, B16-F1, read-out: IC50 ± SEM (nM) (n=3), B16-F1; Table 14A
reported-property: IC50 (nM)
One number for each entry, in nM.

# compound, IC50 [nM]
rows = [
    ("O=C(c1ccc(F)cc1)c1cn(S(=O)(=O)c2ccccc2)c(-c2ccc(Cl)cc2)n1 [11fb]", 107),
    ("CC(C)C[C@H](NC(=O)[C@H](Cc1ccccc1)NC(=O)c1cnccn1)B(O)O [Bortezomib, reference compound]", 24),
]

Indicate its recorded IC50; the compound in question is COc1ccc(-c2nc(C(=O)c3ccc(F)cc3)cn2S(=O)(=O)c2ccccc2)cc1 [11cb]
71

====

System: LNCaP
test-protocol: cells
experimental-setup: Homo sapiens, 96 h, read-out: IC50 ± SEM (nM), LNCaP
I'd be grateful if you could share measured IC50 for these entries.
Answers are plain numbers, in nM.

Examples from the recorded data:
# compound, IC50, nM
data = [
    ("COc1cc(C(=O)c2csc(-c3cc4ccccc4[nH]3)n2)cc(OC)c1OC [62a]", 28),
    ("COc1cc(C(=O)c2c[nH]c(-c3ccc(Br)cc3)n2)cc(OC)c1OC [12la]", 34),
    ("COc1cc(C(=C(C)C)c2csc(-c3ccccc3)n2)cc(OC)c1OC [2a]", 1390),
    ("COc1cc(Sc2cccc(-c3ccccc3)c2)cc(OC)c1OC [4a]", 300),
    ("COc1ccc(-c2nc(C(=O)c3cc(OC)c(OC)c(OC)c3)cn2S(=O)(=O)c2ccccc2)cc1OC [11ha]", 114),
]

Moving on to the next compound.
Report measured IC50; entry is COc1cc(C(=O)c2cn(Cc3ccccc3)c(-c3ccc(C)cc3)n2)cc(OC)c1OC [12daa]
683

Values from patent EP2608671B1
